Tested on: S180-bearing mice
ASSAY DETAILS: Bio-distribution in tumor-bearing mice
Type: in vivo
CONDITION: S180-bearing mice, tail vein, 30 min
Protocol: The labeled solution (0.1 mL, 74 KBq) is injected into mice through the tail vein, and the injection time is recorded. Then the mice were killed by cervical dislocation at different time phases (30 minutes, 60 minutes, and 120 minutes), five mice for each time phase, and the organs of interest such as heart, liver, lung, kidney, spleen, stomach, muscle, blood and tumor are taken out after dissection, and measured with a γ-counter for the radioactive count of each organ. […]
Readings of Spleen uptake for the listed compounds

COMPOUND	TEST TARGET	Spleen uptake
O=C(CCCC[N+]#[C][99Tc-5]([C]#[N+]CCCCC(=O)NC1C(O)OC(CO)C(O)C1O)([C]#[N+]CCCCC(=O)NC1C(O)OC(CO)C(O)C1O)([C]#[N+]CCCCC(=O)NC1C(O)OC(CO)C(O)C1O)([C]#[N+]CCCCC(=O)NC1C(O)OC(CO)C(O)C1O)[C]#[N+]CCCCC(=O)NC1C(O)OC(CO)C(O)C1O)NC1C(O)OC(CO)C(O)C1O (stereo not shown) [[^99mTc-(CN4DG)6]^+]	S180-bearing mice	0.53 ± 0.12 % ID/g
O=C(CCC[N+]#[C][99Tc-5]([C]#[N+]CCCC(=O)NC1C(O)OC(CO)C(O)C1O)([C]#[N+]CCCC(=O)NC1C(O)OC(CO)C(O)C1O)([C]#[N+]CCCC(=O)NC1C(O)OC(CO)C(O)C1O)([C]#[N+]CCCC(=O)NC1C(O)OC(CO)C(O)C1O)[C]#[N+]CCCC(=O)NC1C(O)OC(CO)C(O)C1O)NC1C(O)OC(CO)C(O)C1O (stereo not shown) [[^99mTc-(CN3DG)6]^+]	S180-bearing mice	0.28 ± 0.05 % ID/g
O=C(CCCCC[N+]#[C][99Tc-5]([C]#[N+]CCCCCC(=O)NC1C(O)OC(CO)C(O)C1O)([C]#[N+]CCCCCC(=O)NC1C(O)OC(CO)C(O)C1O)([C]#[N+]CCCCCC(=O)NC1C(O)OC(CO)C(O)C1O)([C]#[N+]CCCCCC(=O)NC1C(O)OC(CO)C(O)C1O)[C]#[N+]CCCCCC(=O)NC1C(O)OC(CO)C(O)C1O)NC1C(O)OC(CO)C(O)C1O (stereo not shown) [[^99mTc-(CN5DG)6]^+]	S180-bearing mice	0.51 ± 0.08 % ID/g
O=C(CC[N+]#[C][99Tc-5]([C]#[N+]CCC(=O)NC1C(O)OC(CO)C(O)C1O)([C]#[N+]CCC(=O)NC1C(O)OC(CO)C(O)C1O)([C]#[N+]CCC(=O)NC1C(O)OC(CO)C(O)C1O)([C]#[N+]CCC(=O)NC1C(O)OC(CO)C(O)C1O)[C]#[N+]CCC(=O)NC1C(O)OC(CO)C(O)C1O)NC1C(O)OC(CO)C(O)C1O (stereo not shown) [[^99mTc-(CN2DG)6]^+]	S180-bearing mice	0.31 ± 0.09 % ID/g

###

Test system: S180-bearing mice
ASSAY DETAILS: Bio-distribution in tumor-bearing mice
Format: in vivo
CONDITION: S180-bearing mice, tail vein, 120 min
Method: The labeled solution (0.1 mL, 74 KBq) is injected into mice through the tail vein, and the injection time is recorded. Then the mice were killed by cervical dislocation at different time phases (30 minutes, 60 minutes, and 120 minutes), five mice for each time phase, and the organs of interest such as heart, liver, lung, kidney, spleen, stomach, muscle, blood and tumor are taken out after dissection, and measured with a γ-counter for the radioactive count of each organ. […]

COMPOUND	Tumor uptake / % ID/g
O=C(CCC[N+]#[C][99Tc-5]([C]#[N+]CCCC(=O)NC1C(O)OC(CO)C(O)C1O)([C]#[N+]CCCC(=O)NC1C(O)OC(CO)C(O)C1O)([C]#[N+]CCCC(=O)NC1C(O)OC(CO)C(O)C1O)([C]#[N+]CCCC(=O)NC1C(O)OC(CO)C(O)C1O)[C]#[N+]CCCC(=O)NC1C(O)OC(CO)C(O)C1O)NC1C(O)OC(CO)C(O)C1O (stereo not drawn) [[^99mTc-(CN3DG)6]^+]	0.68
O=C(CCCCC[N+]#[C][99Tc-5]([C]#[N+]CCCCCC(=O)NC1C(O)OC(CO)C(O)C1O)([C]#[N+]CCCCCC(=O)NC1C(O)OC(CO)C(O)C1O)([C]#[N+]CCCCCC(=O)NC1C(O)OC(CO)C(O)C1O)([C]#[N+]CCCCCC(=O)NC1C(O)OC(CO)C(O)C1O)[C]#[N+]CCCCCC(=O)NC1C(O)OC(CO)C(O)C1O)NC1C(O)OC(CO)C(O)C1O (stereo not drawn) [[^99mTc-(CN5DG)6]^+]	0.75
O=C(CCCC[N+]#[C][99Tc-5]([C]#[N+]CCCCC(=O)NC1C(O)OC(CO)C(O)C1O)([C]#[N+]CCCCC(=O)NC1C(O)OC(CO)C(O)C1O)([C]#[N+]CCCCC(=O)NC1C(O)OC(CO)C(O)C1O)([C]#[N+]CCCCC(=O)NC1C(O)OC(CO)C(O)C1O)[C]#[N+]CCCCC(=O)NC1C(O)OC(CO)C(O)C1O)NC1C(O)OC(CO)C(O)C1O (stereo not drawn) [[^99mTc-(CN4DG)6]^+]	0.45

###

In this section we review reported Heart uptake values for a set of compounds.
Test system: S180-bearing mice
ASSAY DETAILS: Bio-distribution in tumor-bearing mice
Assay type: in vivo
CONDITION: S180-bearing mice, tail vein, 120 min

COMPOUND	Heart uptake / % ID/g
O=C(CCCC[N+]#[C][99Tc-5]([C]#[N+]CCCCC(=O)NC1C(O)OC(CO)C(O)C1O)([C]#[N+]CCCCC(=O)NC1C(O)OC(CO)C(O)C1O)([C]#[N+]CCCCC(=O)NC1C(O)OC(CO)C(O)C1O)([C]#[N+]CCCCC(=O)NC1C(O)OC(CO)C(O)C1O)[C]#[N+]CCCCC(=O)NC1C(O)OC(CO)C(O)C1O)NC1C(O)OC(CO)C(O)C1O (stereo not shown) [[^99mTc-(CN4DG)6]^+]	0.10
O=C(CCC[N+]#[C][99Tc-5]([C]#[N+]CCCC(=O)NC1C(O)OC(CO)C(O)C1O)([C]#[N+]CCCC(=O)NC1C(O)OC(CO)C(O)C1O)([C]#[N+]CCCC(=O)NC1C(O)OC(CO)C(O)C1O)([C]#[N+]CCCC(=O)NC1C(O)OC(CO)C(O)C1O)[C]#[N+]CCCC(=O)NC1C(O)OC(CO)C(O)C1O)NC1C(O)OC(CO)C(O)C1O (stereo not shown) [[^99mTc-(CN3DG)6]^+]	0.22
O=C(CC[N+]#[C][99Tc-5]([C]#[N+]CCC(=O)NC1C(O)OC(CO)C(O)C1O)([C]#[N+]CCC(=O)NC1C(O)OC(CO)C(O)C1O)([C]#[N+]CCC(=O)NC1C(O)OC(CO)C(O)C1O)([C]#[N+]CCC(=O)NC1C(O)OC(CO)C(O)C1O)[C]#[N+]CCC(=O)NC1C(O)OC(CO)C(O)C1O)NC1C(O)OC(CO)C(O)C1O (stereo not shown) [[^99mTc-(CN2DG)6]^+]	0.05
O=C(CCCCC[N+]#[C][99Tc-5]([C]#[N+]CCCCCC(=O)NC1C(O)OC(CO)C(O)C1O)([C]#[N+]CCCCCC(=O)NC1C(O)OC(CO)C(O)C1O)([C]#[N+]CCCCCC(=O)NC1C(O)OC(CO)C(O)C1O)([C]#[N+]CCCCCC(=O)NC1C(O)OC(CO)C(O)C1O)[C]#[N+]CCCCCC(=O)NC1C(O)OC(CO)C(O)C1O)NC1C(O)OC(CO)C(O)C1O (stereo not shown) [[^99mTc-(CN5DG)6]^+]	0.22

###

System: S180-bearing mice
ASSAY DETAILS: Bio-distribution in tumor-bearing mice
Type: in vivo
CONDITION: S180-bearing mice, tail vein, 120 min
RECORDED METRIC: Tumor/blood ratio

COMPOUND	MEAS VALUE
O=C(CC[N+]#[C][99Tc-5]([C]#[N+]CCC(=O)NC1C(O)OC(CO)C(O)C1O)([C]#[N+]CCC(=O)NC1C(O)OC(CO)C(O)C1O)([C]#[N+]CCC(=O)NC1C(O)OC(CO)C(O)C1O)([C]#[N+]CCC(=O)NC1C(O)OC(CO)C(O)C1O)[C]#[N+]CCC(=O)NC1C(O)OC(CO)C(O)C1O)NC1C(O)OC(CO)C(O)C1O (stereo not drawn) [[^99mTc-(CN2DG)6]^+]	25.00
O=C(CCCCC[N+]#[C][99Tc-5]([C]#[N+]CCCCCC(=O)NC1C(O)OC(CO)C(O)C1O)([C]#[N+]CCCCCC(=O)NC1C(O)OC(CO)C(O)C1O)([C]#[N+]CCCCCC(=O)NC1C(O)OC(CO)C(O)C1O)([C]#[N+]CCCCCC(=O)NC1C(O)OC(CO)C(O)C1O)[C]#[N+]CCCCCC(=O)NC1C(O)OC(CO)C(O)C1O)NC1C(O)OC(CO)C(O)C1O (stereo not drawn) [[^99mTc-(CN5DG)6]^+]	4.69
O=C(CCC[N+]#[C][99Tc-5]([C]#[N+]CCCC(=O)NC1C(O)OC(CO)C(O)C1O)([C]#[N+]CCCC(=O)NC1C(O)OC(CO)C(O)C1O)([C]#[N+]CCCC(=O)NC1C(O)OC(CO)C(O)C1O)([C]#[N+]CCCC(=O)NC1C(O)OC(CO)C(O)C1O)[C]#[N+]CCCC(=O)NC1C(O)OC(CO)C(O)C1O)NC1C(O)OC(CO)C(O)C1O (stereo not drawn) [[^99mTc-(CN3DG)6]^+]	17.00
